Where these numbers come from: patent US8629166B2

Molecular target: human CB1 receptor (Homo sapiens, UniProt P21554)
Construct: expressed in transfected cells; host or cells: human embryonic kidney (HEK) cells, Semliki Forest Virus system, membrane preparation
Sequence (P21554 whole entry): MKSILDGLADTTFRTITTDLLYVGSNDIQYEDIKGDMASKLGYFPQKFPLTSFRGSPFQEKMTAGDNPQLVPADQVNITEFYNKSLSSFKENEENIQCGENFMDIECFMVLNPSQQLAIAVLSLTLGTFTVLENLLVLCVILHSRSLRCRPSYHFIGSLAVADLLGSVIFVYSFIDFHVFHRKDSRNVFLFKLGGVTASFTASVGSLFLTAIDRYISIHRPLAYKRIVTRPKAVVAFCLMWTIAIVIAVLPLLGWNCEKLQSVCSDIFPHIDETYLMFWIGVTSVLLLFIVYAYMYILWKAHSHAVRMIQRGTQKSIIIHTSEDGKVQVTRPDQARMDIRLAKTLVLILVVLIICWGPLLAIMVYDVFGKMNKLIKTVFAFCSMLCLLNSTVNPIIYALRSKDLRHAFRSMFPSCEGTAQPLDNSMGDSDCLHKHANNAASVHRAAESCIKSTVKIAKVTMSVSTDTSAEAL
Experiment: CB1 receptor affinity ([3H]-CP-55,940 displacement, HEK cell membranes)
Format: binding
Conditions: displacement of [3H]-CP-55,940 at 10 μM
Label criterion met when CB1 receptor affinity [% inhibition @ 10 μM] is at or above 20 % inhibition; anything below gets criterion not met.

Study these solved cases before continuing.
smiles_structure	cat
O=C(NCc1ccn(CC2CC2)n1)c1cnc(OCC(F)(F)F)c(C2CCCCC2)c1	criterion met
Cc1noc(CNC(=O)c2cnc(OCC(F)(F)F)c(C3CCCCC3)c2)n1	criterion met
N#Cc1ccc(NC(=O)c2cnc(OCC(F)(F)F)c(C3CCCCC3)c2)cc1	criterion not met
O=C(Nc1cnccn1)c1cnc(OCC(F)(F)F)c(C2CCCCC2)c1	criterion not met

Then there is this molecule:
-- ask Please tell me: is the molecule `O=C(NCc1csc(C2CC2)n1)c1cnc(OCC(F)(F)F)c(C2CCCC2)c1` at or over 20 % inhibition in terms of CB1 receptor affinity [% inhibition @ 10 μM]?
-- reply criterion not met
